Consider the following compounds; for each one, report its MIC.
System: Mycoplasma pneumoniae FH
PROCEDURE TEXT: Standard two-fold tube dilution test, activity against Mycoplasma pneumoniae FH
Format: cell-based
MEASUREMENT CONDITIONS: 144 h, PPLO broth, six days at 37°C, read-out: Minimum Inhibitory Concentration

// for each compound below, give its MIC
1. COC(CC1CC(C)C(=O)C=CC=CCC(C)OC(=O)CC(OC(C)=O)C(OC)C1OC1OC(C)C(OC2CC(C)(O)C(OC(=O)CC(C)C)C(C)O2)C(N(C)C)C1OC(C)=O)OC (centres unmarked)
2. COC(CC1CC(C)C(=O)C=CC=CCC(C)OC(=O)CC(OC(C)=O)C(OC)C1OC1OC(C)C(OC2CC(C)(O)C(OC(=O)CC(C)C)C(C)O2)C(N(C)C)C1O)OC (centres unmarked)

1: > 100 µg/mL; 2: 25 µg/mL

###

Test system: Mycoplasma pneumoniae FH
PROCEDURE TEXT: Standard two-fold tube dilution test, activity against Mycoplasma pneumoniae FH
Type: cell-based
MEASUREMENT CONDITIONS: 144 h, PPLO broth, six days at 37°C, read-out: Minimum Inhibitory Concentration
Consider the following compounds; for each one, report its MIC.
Give bare numbers, in µg/mL.

Fill in MIC for record COC(CC1CC(C)C(O)C=CC=CCC(C)OC(=O)CC(OC(C)=O)C(OC)C1OC1OC(C)C(OC2CC(C)(O)C(OC(=O)CC(C)C)C(C)O2)C(N(C)C)C1O)OC (stereo not drawn)
50

// for each compound below, give its MIC
1. COC(CC1CC(C)C(=O)C=CC=CCC(C)OC(=O)CC(O)C(OC)C1OC1OC(C)C(OC2CC(C)(O)C(OC(=O)CC(C)C)C(C)O2)C(N(C)C)C1O)OC (stereo not drawn)
2. COC(CC1CC(C)C(O)C=CC=CCC(C)OC(=O)CC(O)C(OC)C1OC1OC(C)C(OC2CC(C)(O)C(OC(=O)CC(C)C)C(C)O2)C(N(C)C)C1O)OC (stereo not drawn) [Compound 4, 9-Dihydroniddamycin B dimethyl acetal]

25
50
